- Test system: caspase 3 (Cas-3), active form p17
- procedure.details: Ex vivo Western blot of tumour tissues, cleaved caspase 3
- Assay type: in vivo, mice
- experimental.parameters: pooled tumour samples
measured.property: level of active form of Cas-3 in tumour tissue

compound	experimental.value
N.N.[Cl][Pt][Cl] [Cisplatin, cisplatin, reference compound]	has not been observed
Brc1cc[n+]([Pt-2]([I])([I])[n+]2ccc(Br)c3cc[nH]c32)c2[nH]ccc12 [Complex 6, cis-[Pt(4Braza)2I2]]	has not been observed
Clc1ccnc2[nH]ccc12.Clc1ccnc2[nH]ccc12.[I][Pt][I] [Complex 5, cis-[Pt(4Claza)2I2]]	has not been observed

###

Listing of recorded Infiltration of renal tissues (PMN cells) by entry.
- Tested on: spleen, renal tissue and tumour tissues of L1210 leukaemia-bearing mice
- procedure.details: Histological observations (light microscopy, semi-quantitative)
- experimental.parameters: relative scale 0 to 4

Which measured Infiltration of renal tissues (PMN cells) belongs to N.N.[Cl][Pt][Cl] [Cisplatin, cisplatin, reference compound] , tested on spleen, renal tissue and tumour tissues of L1210 leukaemia-bearing mice? 1 (1 = up to 25%)

###

- System: A2780R cisplatin-resistant ovarian carcinoma cells
- procedure.details: In vitro cytotoxicity testing (MTT assay), A2780R
- Format: cell-based, human
- experimental.parameters: 24 h drug exposure, no recovery, MTT; read-out: IC50±SD, A2780R
measured.property: IC50

Some compounds with recorded IC50:
compound	tested.on	experimental.value
Brc1cc[n+]([Pt-2]([I])([I])[n+]2ccc(Br)c3cc[nH]c32)c2[nH]ccc12 [Complex 6, cis-[Pt(4Braza)2I2]]	A2780R cisplatin-resistant ovarian carcinoma cells	3.3 µM
Clc1c[nH]c2ncccc12.Clc1c[nH]c2ncccc12.[I][Pt][I] [Complex 2, cis-[Pt(3Claza)2I2]]	A2780R cisplatin-resistant ovarian carcinoma cells	3.3 µM
N.N.[Cl][Pt][Cl] [Cisplatin, cisplatin, reference compound]	A2780R cisplatin-resistant ovarian carcinoma cells	> 50 µM
[I][Pt][I].c1cnc2[nH]ccc2c1.c1cnc2[nH]ccc2c1 [Complex 1, cis-[Pt(aza)2I2]]	A2780R cisplatin-resistant ovarian carcinoma cells	3.3 µM
Clc1ccnc2[nH]ccc12.Clc1ccnc2[nH]ccc12.[I][Pt][I] [Complex 5, cis-[Pt(4Claza)2I2]]	A2780R cisplatin-resistant ovarian carcinoma cells	3.4 µM

Moving on to another compound below.
Quick check: IC50 of Brc1cnc2[nH]ccc2c1.Brc1cnc2[nH]ccc2c1.[I-].[I-].[Pt+2] [Complex 7, cis-[Pt(5Braza)2I2]] ? 3.5 µM

###

- Test system: HeLa cervix carcinoma cells
- procedure.details: In vitro cytotoxicity testing (MTT assay), HeLa
- Type: cell-based, human
- experimental.parameters: 24 h drug exposure, no recovery, read-out: IC50±SD, HeLa
Listing of recorded pIC50 by entry.
Field pIC50 (float): negative decimal logarithm of the concentration in molar.

compound	pIC50
N.N.[Cl][Pt][Cl] [Cisplatin, cisplatin, reference compound]	4.52

Quick check: pIC50 of Brc1cnc2[nH]ccc2c1.Brc1cnc2[nH]ccc2c1.[I-].[I-].[Pt+2] [Complex 7, cis-[Pt(5Braza)2I2]] ? 5.27

And then Clc1ccnc2[nH]ccc12.Clc1ccnc2[nH]ccc12.[I][Pt][I] [Complex 5, cis-[Pt(4Claza)2I2]] , what is it? 5.42

And then Clc1c[nH]c2ncccc12.Clc1c[nH]c2ncccc12.[I][Pt][I] [Complex 2, cis-[Pt(3Claza)2I2]] , what is it? 5.32

And then Cc1cc2c(Cl)cc[n+]([Pt-2]([I])([I])[n+]3ccc(Cl)c4cc(C)[nH]c43)c2[nH]1 [Complex 8, cis-[PtI2(2Me4Claza)2]] , what is it? 5.42

And then [I][Pt][I].c1cnc2[nH]ccc2c1.c1cnc2[nH]ccc2c1 [Complex 1, cis-[Pt(aza)2I2]] , what is it? 5.15

And then Ic1c[nH]c2c1ccc[n+]2[Pt-2]([I])([I])[n+]1cccc2c(I)c[nH]c21 [Complex 4, cis-[PtI2(3Iaza)2]] , what is it? 5.21

And then Brc1cc[n+]([Pt-2]([I])([I])[n+]2ccc(Br)c3cc[nH]c32)c2[nH]ccc12 [Complex 6, cis-[Pt(4Braza)2I2]] , what is it? 5.42

And then Brc1c[nH]c2ncccc12.Brc1c[nH]c2ncccc12.[I][Pt][I] [Complex 3, cis-[Pt(3Braza)2I2]] , what is it? 5.33
